Cited source: PubChem BioAssay AID686978

TEST_DETAILS: qHTS for Inhibitors of human tyrosyl-DNA phosphodiesterase 1 (TDP1): qHTS in cells in absence of CPT; further: nearly all actives have a fitted effect of over 55% in size; further: potency means the concentration at half of the fitted maximal effect
EXPERIMENTAL_SETUP: DT40 Tdp1-/- hTDP1 cells, no CPT, ATP luminescence, 48 h
The whole screen tested about 420,000 compounds, of which about 64,000 (15%) were called active. About 27% were inconclusive and are not listed. Only a sample is shown.
ASSAY_ENDPOINT: Potency

Solved cases (6 shown):
{"MOLECULE": "CCOc1ccc(NS(=O)(=O)c2ccc(C(=O)NCC(c3ccccc3OC)N3CCCC3)cc2)cc1 (stereo not given)", "Potency": "18.4 µM (active)"}
{"MOLECULE": "CCOc1ccc(S(=O)(=O)Nc2nccs2)cc1", "Potency": "inactive"}
{"MOLECULE": "O=C(NCC1CCCCC1)c1cc(S(=O)(=O)N2CCCCC2)ccc1N1CCOCC1", "Potency": "inactive"}
{"MOLECULE": "COCCNC(=O)CN1C(=O)CSc2ncccc21", "Potency": "inactive"}
{"MOLECULE": "COc1ccccc1C(CNC(=O)c1cccc(NS(=O)(=O)c2ccc(Br)cc2)c1)N(C)C (stereo not given)", "Potency": "18.4 µM (active)"}
{"MOLECULE": "COc1ccc(C(CNC(=O)c2ccc(S(=O)(=O)Nc3ccccc3F)cc2)N(C)C)cc1 (stereo not given)", "Potency": "inactive"}

Dear colleague, could you send me Potency for each of the items below? Thanks.
1. Cc1ccc(Cl)cc1N1CCN(C(=O)c2cn(C)c3ccc(S(=O)(=O)N(C)C4CCCCC4)cc3c2=O)CC1
2. O=C(CCNC(=O)c1ccc(Cl)cc1)NC1CCCc2ccccc21 (stereo not given)
3. O=C(O)C1CCC(CNS(=O)(=O)c2ccc(Br)cc2)CC1 (stereo not given)
4. CCn1cc(C(=O)N2CCN(c3cc(Cl)ccc3C)CC2)c(=O)c2cc(S(=O)(=O)N3CCCC3)ccc21
5. CC(C)CC(=O)NCC(c1ccc2c(c1)OCO2)N1CCN(c2ccc(F)cc2)CC1 (stereo not given)
6. O=C1c2ccncc2C(=O)N1C1CCCCC1

["inactive", "inactive", "inactive", "25.9 µM (active)", "25.9 µM (active)", "inactive"]

Dear colleague, could you send me Potency for each of the items below? Thanks.
1. CCC(C)(C)NC(=O)C(c1ccc(O)cc1)N(C(=O)Cn1nnc2ccccc21)c1ccc(NC(C)=O)cc1 (stereo not given)
2. CCn1cc(C(=O)N2CCN(c3cc(C)ccc3C)CC2)c(=O)c2cc(S(=O)(=O)N(C)C3CCCCC3)ccc21
3. O=C(NCc1ccco1)c1ccc([N+](=O)[O-])cc1Cl

["inactive", "18.4 µM (active)", "inactive"]
